# Tested on: Human immunodeficiency virus type 1 reverse transcriptase (Human immunodeficiency virus 1), Q72547 [Y181I]
# METHOD: Inhibition of Y181I mutant HIV1 reverse transcriptase by [3H]dTTP poly(rA)/oligo(dT) incorporation at 400 uM
Calls of active or inactive are those of the source. The rule behind the calls is not given here.
RESULT TYPE: ID50

Past entries and their recorded results:
>  <INPUT SMILES>
Cc1c(O)nc(SCc2ccc(O)cc2)nc1Cc1c(Cl)cccc1Cl

>  <VAL>
inactive

$$$$
>  <INPUT SMILES>
Cc1c(Cc2c(F)cccc2F)nc(SCc2ccc([N+](=O)[O-])cc2)[nH]c1=O

>  <VAL>
inactive

$$$$
>  <INPUT SMILES>
Cc1c(O)nc(SCc2ccc3c(c2)C(=O)c2ccccc2C3=O)nc1Cc1c(Cl)cccc1Cl

>  <VAL>
inactive

$$$$
>  <INPUT SMILES>
COc1ccc(CSc2nc(O)c(C)c(Cc3c(F)cccc3F)n2)cc1

>  <VAL>
inactive

$$$$
>  <INPUT SMILES>
Cc1c(O)nc(SCc2ccc(C#N)cc2)nc1Cc1c(Cl)cccc1Cl

>  <VAL>
inactive

$$$$
>  <INPUT SMILES>
COc1cc(CSc2nc(O)c(C)c(Cc3c(F)cccc3F)n2)cc(OC)c1

>  <VAL>
inactive

$$$$

Data request: Could you share which ID50 value was measured for COc1ccc(CSc2nc(O)c(C)c(Cc3c(Cl)cccc3Cl)n2)cc1OC ?
Data returned: inactive

Data request: Could you share which ID50 value was measured for Cc1c(O)nc(SCc2ccc([N+](=O)[O-])cc2)nc1Cc1ccc(F)cc1 ?
Data returned: inactive

Data request: Could you share which ID50 value was measured for Cc1c(O)nc(SCc2cccc(C#N)c2)nc1Cc1c(Cl)cccc1Cl ?
Data returned: inactive

Data request: Could you share which ID50 value was measured for Cc1c(O)nc(S(=O)(=O)Cc2ccc([N+](=O)[O-])cc2)nc1Cc1c(Cl)cccc1Cl ?
Data returned: inactive

---

# ASSAYED SYSTEM: Human immunodeficiency virus type 1 reverse transcriptase (Human immunodeficiency virus 1)
The label is true for ID50 below 1000 nM and false for ID50 equal to or exceeding 1000 nM.

Data request: Record Cc1c(O)nc(SCc2ccccc2)nc1Cc1c(Cl)cccc1Cl : is its ID50 strictly below 1000 nM?
Data returned: false

Data request: Record Cc1c(O)nc(SCc2ccc([N+](=O)[O-])cc2)nc1Cc1c(Cl)cccc1Cl : is its ID50 strictly below 1000 nM?
Data returned: true

Data request: Record Cc1c(O)nc(SCc2ccc(C#N)cc2)nc1Cc1c(Cl)cccc1Cl : is its ID50 strictly below 1000 nM?
Data returned: false

Data request: Record COc1ccc(CCSc2nc(Cc3c(Cl)cccc3Cl)c(C)c(=O)[nH]2)cc1 : is its ID50 strictly below 1000 nM?
Data returned: true

Data request: Record Cc1c(O)nc(SCc2ccc3c(c2)C(=O)c2ccccc2C3=O)nc1Cc1c(Cl)cccc1Cl : is its ID50 strictly below 1000 nM?
Data returned: false

Data request: Record COc1ccc(CSc2nc(O)c(C)c(Cc3c(Cl)cccc3Cl)n2)c(OC)c1 : is its ID50 strictly below 1000 nM?
Data returned: false

Data request: Record Cc1c(O)nc(SCc2ccc(F)cc2)nc1Cc1c(Cl)cccc1Cl : is its ID50 strictly below 1000 nM?
Data returned: false

Data request: Record Cc1c(O)nc(SCc2ccc3c(c2)OCO3)nc1Cc1c(Cl)cccc1Cl : is its ID50 strictly below 1000 nM?
Data returned: true

Data request: Record COc1ccc(CSc2nc(O)c(C)c(Cc3c(Cl)cccc3Cl)n2)cc1OC : is its ID50 strictly below 1000 nM?
Data returned: false

Data request: Record Cc1c(O)nc(SCc2cccc(F)c2)nc1Cc1c(Cl)cccc1Cl : is its ID50 strictly below 1000 nM?
Data returned: false

---

# Test system: Human immunodeficiency virus type 1 reverse transcriptase (Human immunodeficiency virus 1), Q72547 [Y181I]
The label is rule met for ID50 below 20 µM and rule not met for ID50 equal to or exceeding 20 µM.

Data request: Record Cc1c(O)nc(SCc2ccc([N+](=O)[O-])cc2)nc1Cc1c(Cl)cccc1Cl : is its ID50 strictly below 20 µM?
Data returned: rule met

Data request: Record COc1ccc(CCSc2nc(Cc3c(Cl)cccc3Cl)c(C)c(=O)[nH]2)cc1 : is its ID50 strictly below 20 µM?
Data returned: rule met

Data request: Record COc1ccc(CCCSc2nc(O)c(C)c(Cc3c(Cl)cccc3Cl)n2)cc1 : is its ID50 strictly below 20 µM?
Data returned: rule met

Data request: Record COc1ccc(CS(=O)(=O)c2nc(O)c(C)c(Cc3c(Cl)cccc3Cl)n2)cc1 : is its ID50 strictly below 20 µM?
Data returned: rule not met

Data request: Record Cc1c(O)nc(SCc2cccc(Cl)c2)nc1Cc1c(Cl)cccc1Cl : is its ID50 strictly below 20 µM?
Data returned: rule not met

Data request: Record COc1ccc(CSc2nc(Cc3c(Cl)cccc3Cl)c(C)c(=O)[nH]2)cc1 : is its ID50 strictly below 20 µM?
Data returned: rule not met

---

# System: Human immunodeficiency virus type 1 reverse transcriptase (Human immunodeficiency virus 1), Q72547 [K103N]
# METHOD: Inhibition of K103N mutant HIV1 reverse transcriptase by [3H]dTTP poly(rA)/oligo(dT) incorporation at 400 uM
Activity calls are given as the source filed them. The calls are words filed in the database; no cut-off is given here.
RESULT TYPE: ID50

Past entries and their recorded results:
>  <INPUT SMILES>
Cc1c(O)nc(SCc2ccc(F)cc2)nc1Cc1c(Cl)cccc1Cl

>  <ID50>
inactive

$$$$
>  <INPUT SMILES>
COc1cc(CSc2nc(O)c(C)c(Cc3c(Cl)cccc3Cl)n2)cc(OC)c1

>  <ID50>
inactive

$$$$
>  <INPUT SMILES>
COc1cc(CSc2nc(O)c(C)c(Cc3c(F)cccc3F)n2)cc(OC)c1

>  <ID50>
inactive

$$$$
>  <INPUT SMILES>
COc1ccc(CSc2nc(O)c(C)c(Cc3c(Cl)cccc3Cl)n2)c(OC)c1

>  <ID50>
inactive

$$$$

Attention now turns to another entry.
Data request: Could you share which ID50 value was measured for CCCCOc1ccc(CSc2nc(O)c(C)c(Cc3c(Cl)cccc3Cl)n2)cc1 ?
Data returned: inactive

---

# Test system: Human immunodeficiency virus type 1 reverse transcriptase (Human immunodeficiency virus 1), Q72547 [K103N]
RESULT TYPE: ID50

Data request: Could you share which ID50 value was measured for Cc1c(O)nc(SCc2cccc(F)c2)nc1Cc1c(Cl)cccc1Cl ?
Data returned: 35 µM

Data request: Could you share which ID50 value was measured for Cc1c(O)nc(SCc2ccc([N+](=O)[O-])cc2)nc1Cc1c(Cl)cccc1Cl ?
Data returned: 0.12 µM

Data request: Could you share which ID50 value was measured for Cc1ccnc2c1NC(=O)c1cccnc1N2C1CC1 ?
Data returned: 8 µM

Data request: Could you share which ID50 value was measured for COc1ccc(CCCSc2nc(O)c(C)c(Cc3c(Cl)cccc3Cl)n2)cc1 ?
Data returned: 0.5 µM

Data request: Could you share which ID50 value was measured for COc1ccc(CS(=O)(=O)c2nc(O)c(C)c(Cc3c(Cl)cccc3Cl)n2)cc1 ?
Data returned: 10 µM

Data request: Could you share which ID50 value was measured for COc1ccc(CSc2nc(Cc3c(Cl)cccc3Cl)c(C)c(=O)[nH]2)cc1 ?
Data returned: 102 µM

Data request: Could you share which ID50 value was measured for Cc1c(O)nc(SCc2ccccc2)nc1Cc1c(Cl)cccc1Cl ?
Data returned: 350 µM

Data request: Could you share which ID50 value was measured for COc1ccc(CCSc2nc(Cc3c(Cl)cccc3Cl)c(C)c(=O)[nH]2)cc1 ?
Data returned: 3.2 µM

Data request: Could you share which ID50 value was measured for Cc1c(O)nc(SCc2cccc(Cl)c2)nc1Cc1c(Cl)cccc1Cl ?
Data returned: 400 µM

Data request: Could you share which ID50 value was measured for COc1ccc(CSc2nc(O)c(C)c(Cc3c(F)cccc3F)n2)cc1 ?
Data returned: 3.5 µM

Data request: Could you share which ID50 value was measured for Cc1c(O)nc(SCc2ccc(Br)cc2)nc1Cc1c(Cl)cccc1Cl ?
Data returned: 9 µM

---

Would you mind telling me the reported ID50 of each entry?
Give just the numeric value; nM need not be written.

Data request: Request: ID50, test system Human immunodeficiency virus type 1 reverse transcriptase (Human immunodeficiency virus 1), entry CCCCOc1ccc(CSc2nc(O)c(C)c(Cc3c(Cl)cccc3Cl)n2)cc1
Data returned: 2800

Data request: Request: ID50, test system Human immunodeficiency virus type 1 reverse transcriptase (Human immunodeficiency virus 1), entry COc1ccc(CSc2nc(O)c(C)c(Cc3c(F)cccc3F)n2)cc1
Data returned: 7

Data request: Request: ID50, test system Human immunodeficiency virus type 1 reverse transcriptase (Human immunodeficiency virus 1), entry COc1ccc(CS(=O)(=O)c2nc(O)c(C)c(Cc3c(Cl)cccc3Cl)n2)cc1
Data returned: 6

Data request: Request: ID50, test system Human immunodeficiency virus type 1 reverse transcriptase (Human immunodeficiency virus 1), entry Cc1c(O)nc(SCc2cccc(Cl)c2)nc1Cc1c(Cl)cccc1Cl
Data returned: 2300

Data request: Request: ID50, test system Human immunodeficiency virus type 1 reverse transcriptase (Human immunodeficiency virus 1), entry Cc1c(O)nc(SCc2ccc(C#N)cc2)nc1Cc1c(F)cccc1F
Data returned: 760

Data request: Request: ID50, test system Human immunodeficiency virus type 1 reverse transcriptase (Human immunodeficiency virus 1), entry Cc1c(O)nc(SCc2ccc(Cl)cc2)nc1Cc1c(Cl)cccc1Cl
Data returned: 20000

Data request: Request: ID50, test system Human immunodeficiency virus type 1 reverse transcriptase (Human immunodeficiency virus 1), entry COc1cc(CSc2nc(O)c(C)c(Cc3c(Cl)cccc3Cl)n2)cc(OC)c1
Data returned: 256000

Data request: Request: ID50, test system Human immunodeficiency virus type 1 reverse transcriptase (Human immunodeficiency virus 1), entry COc1ccc(CCCSc2nc(O)c(C)c(Cc3c(Cl)cccc3Cl)n2)cc1
Data returned: 37

Data request: Request: ID50, test system Human immunodeficiency virus type 1 reverse transcriptase (Human immunodeficiency virus 1), entry Cc1c(O)nc(SCc2ccc(C(C)C)cc2)nc1Cc1c(F)cccc1F
Data returned: 3000

Data request: Request: ID50, test system Human immunodeficiency virus type 1 reverse transcriptase (Human immunodeficiency virus 1), entry COc1ccc(CSc2nc(Cc3c(Cl)cccc3Cl)c(C)c(=O)[nH]2)cc1
Data returned: 4

Data request: Request: ID50, test system Human immunodeficiency virus type 1 reverse transcriptase (Human immunodeficiency virus 1), entry CCOc1ccc(CSc2nc(O)c(C)c(Cc3c(Cl)cccc3Cl)n2)cc1
Data returned: 2000

Data request: Request: ID50, test system Human immunodeficiency virus type 1 reverse transcriptase (Human immunodeficiency virus 1), entry Cc1c(O)nc(SCc2cccc(C#N)c2)nc1Cc1c(Cl)cccc1Cl
Data returned: 9500

Data request: Request: ID50, test system Human immunodeficiency virus type 1 reverse transcriptase (Human immunodeficiency virus 1), entry Cc1c(O)nc(SCc2ccc(Br)cc2)nc1Cc1c(Cl)cccc1Cl
Data returned: 390
